measured-property: melting point (°C)

CCNc1c([S+](C)[O-])c(C(C)=O)nn1-c1c(Cl)cc(C(F)(F)F)cc1Cl (stereo not drawn)	123

(a) CSc1c(C(C)=O)nn(-c2c(Cl)cc(C(F)(F)F)cc2Cl)c1N
(b) CC(=O)c1nn(-c2c(Cl)cc(C(F)(F)F)cc2Cl)c(N)c1[S+](C)[O-] (stereo not drawn)
Ask: When a and b are compared, which has the higher number for melting point? State your choice using its label.
Result: b
(b: 166 °C, a: 113 °C)

---

measured-property: melting point (°C)

Some solved cases for reference:
CC[S+]([O-])c1c(C(C)=O)nn(-c2c(Cl)cc(C(F)(F)F)cc2Cl)c1N (centres unmarked)	189
CNc1c([S+](C)[O-])c(C(C)=O)nn1-c1c(Cl)cc(C(F)(F)F)cc1Cl (centres unmarked)	126

(A) CC(=O)c1nn(-c2c(Cl)cc(C(F)(F)F)cc2Br)c(N)c1[S+](C)[O-] (centres unmarked)
(B) CCS(=O)(=O)CCNc1c([S+](C)[O-])c(C(C)=O)nn1-c1c(Cl)cc(C(F)(F)F)cc1Cl (centres unmarked)
Ask: Sorting ascending by melting point, which comes first: A or B ? State your choice using its label.
Result: B
